# TARGET_OF_ASSAY: Corticotropin-releasing factor receptor 2/Corticotropin-releasing factor-binding protein (Homo sapiens, UniProt P24387+Q13324)
# Sequence (Q13324 whole entry): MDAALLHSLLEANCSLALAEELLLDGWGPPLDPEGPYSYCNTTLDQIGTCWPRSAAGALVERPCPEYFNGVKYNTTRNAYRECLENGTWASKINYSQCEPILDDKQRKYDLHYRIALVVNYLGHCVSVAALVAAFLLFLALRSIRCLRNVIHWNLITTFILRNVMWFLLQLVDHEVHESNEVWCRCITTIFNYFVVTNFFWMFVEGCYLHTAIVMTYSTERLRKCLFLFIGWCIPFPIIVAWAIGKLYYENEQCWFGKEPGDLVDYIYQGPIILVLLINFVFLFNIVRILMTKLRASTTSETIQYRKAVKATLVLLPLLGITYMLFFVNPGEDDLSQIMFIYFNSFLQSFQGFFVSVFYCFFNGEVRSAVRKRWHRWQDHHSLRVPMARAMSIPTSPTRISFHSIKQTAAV
# Sequence (P24387 whole entry): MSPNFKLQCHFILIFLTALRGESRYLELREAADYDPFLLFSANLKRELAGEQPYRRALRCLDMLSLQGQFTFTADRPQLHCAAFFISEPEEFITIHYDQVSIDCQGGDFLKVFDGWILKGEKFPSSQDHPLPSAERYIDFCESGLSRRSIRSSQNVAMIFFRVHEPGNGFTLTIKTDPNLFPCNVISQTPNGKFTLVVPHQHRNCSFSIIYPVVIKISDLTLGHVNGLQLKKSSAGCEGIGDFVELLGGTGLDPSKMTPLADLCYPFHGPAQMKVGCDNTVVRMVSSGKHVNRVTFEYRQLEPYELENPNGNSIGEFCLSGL
# ASSAY_NAME: activators of CRF receptor 2 with binding protein – uHTS hits, confirmation (AID 602473)
# Format: functional
# PROTOCOL_CONDITIONS: read-out: EC50_Mean
Calls of active or inactive are those of the source.
Labels: class 1 (active), class 0 (inactive)

COMPOUND | ASSIGNED_CATEGORY
Cc1cccc(C)c1NC(=O)Cc1cccs1 | class 0
COc1ccc(C(C(=O)NC2CCCC2)N(C(=O)c2ccoc2C)c2cc(C)cc(C)c2)cc1 (stereo not given) | class 0
CCOc1ccc(/C=C2\SC(=S)N(NS(=O)(=O)c3ccc(C)cc3)C2=O)cc1OC | class 0
CN1C(=O)C(N=Nc2ccc([N+](=O)[O-])cc2)SC1=S (stereo not given) | class 1
Cc1ccc(S(=O)(=O)c2nnn3c2nc(N2CCCCC2)c2ccccc23)cc1 | class 0
CN(C)CCCNC(=O)C[C@H]1C[C@H](C(=O)N2CCOCC2)[C@@]2(C)c3[nH]c4ccc(Cl)cc4c3CCN2C1=O | class 0
CC(=O)Nc1ccc(CN2CCCC(CO)(Cc3cccc(Cl)c3)C2)cc1 (stereo not given) | class 0
Cc1ccc2cccc(S(=O)(=O)N3CCCc4ccccc43)c2n1 | class 1
CC(=O)c1cc(NC(=O)c2ccc(C)cc2)c(=O)oc1/C=C/N(C)C | class 1
CC(C)Cn1cc(C(=O)N2CCC(C)CC2)c2c3ccccc3n(C)c2c1=O | class 0

====

# TARGET_OF_ASSAY: Kappa-type opioid receptor (Homo sapiens, UniProt P41145)
# Sequence (P41145 whole entry): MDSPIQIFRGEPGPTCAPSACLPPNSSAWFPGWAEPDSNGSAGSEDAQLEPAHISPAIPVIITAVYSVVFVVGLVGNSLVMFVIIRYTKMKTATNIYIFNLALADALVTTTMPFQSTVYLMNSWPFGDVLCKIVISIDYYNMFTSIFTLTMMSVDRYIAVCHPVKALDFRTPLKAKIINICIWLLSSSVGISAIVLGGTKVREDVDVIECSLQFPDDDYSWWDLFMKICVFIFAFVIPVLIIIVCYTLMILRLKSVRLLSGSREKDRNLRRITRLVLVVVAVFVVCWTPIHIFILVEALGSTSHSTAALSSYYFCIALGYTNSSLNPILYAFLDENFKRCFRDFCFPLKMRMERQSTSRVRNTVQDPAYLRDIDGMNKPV
# Type: functional
pEC50: −log10 of the molar value.

STRUCTURE | pEC50
Cc1cccc(-n2ccnc2CN2CCC(CO)(Cc3ccccc3)CC2)c1 | 5.38

====

# TARGET_OF_ASSAY: UniProtKB P33261
# Sequence (P33261 whole entry): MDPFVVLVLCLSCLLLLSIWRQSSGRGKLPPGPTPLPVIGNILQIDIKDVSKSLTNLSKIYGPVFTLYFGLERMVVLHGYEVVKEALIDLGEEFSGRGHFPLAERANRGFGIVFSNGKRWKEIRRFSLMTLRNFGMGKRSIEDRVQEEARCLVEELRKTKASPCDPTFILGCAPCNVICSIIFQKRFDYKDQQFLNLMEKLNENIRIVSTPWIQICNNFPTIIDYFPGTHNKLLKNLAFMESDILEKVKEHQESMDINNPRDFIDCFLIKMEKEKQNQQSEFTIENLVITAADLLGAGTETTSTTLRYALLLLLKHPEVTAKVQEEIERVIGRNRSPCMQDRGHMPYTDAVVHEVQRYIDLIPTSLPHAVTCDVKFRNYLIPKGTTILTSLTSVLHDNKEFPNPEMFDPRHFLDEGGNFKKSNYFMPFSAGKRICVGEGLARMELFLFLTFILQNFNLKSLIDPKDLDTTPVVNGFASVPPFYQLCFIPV
# ASSAY_NAME: Cytochrome panel assay with activity outcomes. Panel member name: p450-cyp2c19 Compounds with AC50 equal or less than 10 uM are considered active
# Format: functional
# PROTOCOL_CONDITIONS: read-out: AC50

COMPOUND | AC50
CCOC(=O)c1cc2c(=O)n3ccccc3nc2n(CCOC)/c1=N\C(=O)C(C)(C)C | 20 µM (inconclusive)
Cc1cc(C(=O)N/N=C/c2cccc([N+](=O)[O-])c2)c(C)o1 | 22.4 µM (inconclusive)
N#Cc1cccc(NC(=O)N2CCC3(CC2)CCN(C(=O)c2ccco2)CC3)c1 | 20 µM (inconclusive)
Nc1nc(Br)c2c(F)cccc2c1-c1ccc(F)cc1 | 1.12 µM (inconclusive)
CN(C)c1ncnc2ccc(-c3ccoc3)cc12 | 39.8 µM (inconclusive)
COc1ccc(/N=C/c2ccc(CNS(=O)(=O)c3ccc(Cl)cc3)o2)cc1 | 11.2 µM (inconclusive)
C[C@H](CC(C#N)(c1ccccc1)c1ccccc1)N1CCCCC1 | 1.58 µM (inconclusive)
CCN(CC)CCCN(Cc1cc2ccc(C)c(C)c2nc1O)C(=O)NC1CCCCC1 | 39.8 µM (inconclusive)
Cc1c(/C=N/CCOCc2ccccc2)cnn1C | 22.4 µM (inconclusive)
CC1CCCC(NC(=O)c2nnc(O)c3ccccc23)C1C (configuration not stated) | 20 µM (inconclusive)
Cn1cccc1CNCCc1ccccc1 | 14.1 µM (inconclusive)
Cn1c(=O)c(-c2ccccc2)nc2cnc(Nc3ccccc3)nc21 | 0.0398 µM (inconclusive)

// data source = ChEMBL document CHEMBL1201862
